- study_target: Mu opioid receptor (MOR) (Homo sapiens, UniProt P35372)
- Sequence (P35372 whole entry): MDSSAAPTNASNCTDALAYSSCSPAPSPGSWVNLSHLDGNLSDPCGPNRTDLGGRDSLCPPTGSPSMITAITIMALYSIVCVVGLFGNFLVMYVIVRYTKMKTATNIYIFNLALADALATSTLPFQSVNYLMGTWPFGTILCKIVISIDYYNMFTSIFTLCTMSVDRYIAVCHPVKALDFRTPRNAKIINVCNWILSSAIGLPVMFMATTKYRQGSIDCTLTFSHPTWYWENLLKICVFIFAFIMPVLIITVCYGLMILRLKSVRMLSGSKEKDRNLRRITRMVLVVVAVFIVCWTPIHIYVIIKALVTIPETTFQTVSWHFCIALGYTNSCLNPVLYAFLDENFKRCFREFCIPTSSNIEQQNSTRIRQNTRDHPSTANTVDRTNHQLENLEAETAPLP
- test_details: cell-based
- Assay type: cell-based
Square brackets hold non-standard residues; d marks the D form. Peptide text beside a SMILES is read from it. Phe(4-Cl) = N[C@@H](Cc1ccc(Cl)cc1)C(=O)O; NMeR = CN[C@@H](CCCNC(=N)N)C(=O)O; Aoc = NCCCCCCCC(=O)O; Sar = CNCC(=O)O
Listing of recorded EC50 by entry.

{"compound": "CC(C)C[C@@H](NC(=O)[C@@H](Cc1ccccc1)NC(=O)[C@H](N)Cc1ccccc1)C(=O)N[C@H](CCCCN)C(=O)N1CCC(N)(C(=O)O)CC1 [SEQ ID NO. 35, DPhe-DPhe-DLeu-DLys-Cap-CO2H, reference compound]", "study_target": "Mu opioid receptor (MOR) (Homo sapiens, UniProt P35372)", "EC50": "> 10 µM"}
{"compound": "CC(C)C[C@H](NC(=O)[C@H](Cc1ccc(Cl)cc1)NC(=O)CN(C)C(=O)[C@@H](N)Cc1ccc(O)cc1)C(=O)N(C)[C@@H](CCCNC(=N)N)C(=O)N[C@H](CCCNC(=N)N)C(N)=O [SEQ ID NO. 13, NH2-Tyr-Sar-(4-Cl)Phe-Leu-NMA-DArg-NH2] (H-Y[Sar][Phe(4-Cl)]L[NMeR][dR]-NH2)", "study_target": "Mu opioid receptor (MOR) (Homo sapiens, UniProt P35372)", "EC50": "> 10 µM"}
{"compound": "CC[C@H](C)[C@H](NC(=O)[C@@H](CCCNC(=N)N)NC(=O)[C@H](CCCNC(=N)N)NC(=O)[C@H](CC(C)C)NC(=O)[C@H](Cc1ccc(Cl)cc1)NC(=O)CN(C)C(=O)[C@@H](N)Cc1ccc(O)cc1)C(=O)N[C@H](CCCNC(=N)N)C(N)=O", "study_target": "Mu opioid receptor (MOR) (Homo sapiens, UniProt P35372)", "EC50": "1.61 µM"}
{"compound": "CC(C)C[C@H](NC(=O)[C@H](Cc1ccc(Cl)cc1)NC(=O)CN(C)C(=O)[C@@H](N)Cc1ccc(O)cc1)C(=O)N[C@@H](CCCNC(=N)N)C(=O)N[C@H](CCCNC(=N)N)C(=O)NCCCCCCCC(N)=O [SEQ ID NO. 24] (H-Y[Sar][Phe(4-Cl)]LR[dR][Aoc]-NH2)", "study_target": "Mu opioid receptor (MOR) (Homo sapiens, UniProt P35372)", "EC50": "> 10 µM"}
